- ASSAY TEXT: Pharmacokinetics in plasma and eye tissues of male SD rats after single administration of eye drop
- Assay type: in vivo
- EXPERIMENTAL CONTEXT: rat, topical or ocular; male SD rats, single eye drop 5 mg/mL, 30 μL/eye, both eyes; Cornea; extrapolated
QUANTITY NAME: AUC(0-inf) (µM·h)
# output: bare number, implied unit µM·h

IN: Fill in: AUC(0-inf) of `c1cn2c(n1)c(Nc1ccc(N3CCOCC3)cc1)nc1ccc(-c3cn[nH]c3)cc12` is ___
OUT: 2.59

* * *

- ASSAY TEXT: Pharmacokinetics in plasma and eye tissues of male SD rats after single administration of eye drop
- Type: in vivo
- EXPERIMENTAL CONTEXT: rat, topical or ocular; male SD rats, single eye drop 5 mg/mL, 30 μL/eye, both eyes; Bulbar conjunctiva; read-out: AUC ratio (tissue AUC0-last/plasma AUC0-last)
QUANTITY NAME: Kp
Could you keep your reply to the number by itself?

IN: What value of measured Kp is listed for `c1cn2c(n1)c(Nc1ccc(N3CCOCC3)cc1)nc1ccc(-c3cn[nH]c3)cc12` ?
OUT: 2910

* * *

- ASSAY TEXT: Pharmacokinetics in plasma and eye tissues of male SD rats after single administration of eye drop
- Type: in vivo
- EXPERIMENTAL CONTEXT: SD (Sprague-Dawley), rat, topical or ocular; male SD rats, single eye drop 5 mg/mL, 30 μL/eye, both eyes; Aqueous humor of anterior chamber
QUANTITY NAME: Tmax (min)
Return type: number; implicit unit min.

IN: I would be grateful if you could share the reported Tmax for `c1cn2c(n1)c(Nc1ccc(N3CCOCC3)cc1)nc1ccc(-c3cn[nH]c3)cc12` .
OUT: 30

* * *

- TARGET: Syk protein kinase (Homo sapiens (Human), UniProt P43405)
- ASSAY TEXT: In vitro evaluation of inhibitory activity against Syk protein kinase (HTRF KinEASE TK)
- Format: biochemical
- EXPERIMENTAL CONTEXT: ATP 2 μM
- Text: Test purpose: to measure an inhibitory IC50 value of the compounds against Syk protein kinase. […]
QUANTITY NAME: IC50 (nM)
Return type: number; implicit unit nM.

IN: Param item = `c1cn2c(n1)c(Nc1ccc(N3CCOCC3)cc1)nc1ccc(-c3cn[nH]c3)cc12` ; retrieve measured IC50.
OUT: 25

* * *

- ASSAY TEXT: Pharmacokinetics in plasma and eye tissues of male SD rats after single administration of eye drop
- Type: in vivo
- EXPERIMENTAL CONTEXT: SD (Sprague-Dawley), rat, topical or ocular; male SD rats, single eye drop 5 mg/mL, 30 μL/eye, both eyes; Aqueous humor of anterior chamber
QUANTITY NAME: AUC(0-t) (µM·h)
# number only, unit µM·h dropped from output

IN: Form field: reported AUC(0-t) of `c1cn2c(n1)c(Nc1ccc(N3CCOCC3)cc1)nc1ccc(-c3cn[nH]c3)cc12`
OUT: 0.657

* * *

- ASSAY TEXT: Pharmacokinetics in plasma and eye tissues of male SD rats after single administration of eye drop
- Type: in vivo
- EXPERIMENTAL CONTEXT: SD (Sprague-Dawley), rat, topical or ocular; male SD rats, single eye drop 5 mg/mL, 30 μL/eye, both eyes; Cornea
QUANTITY NAME: AUC(0-t) (µM·h)
A number alone suffices; assume µM·h.

IN: Item `c1cn2c(n1)c(Nc1ccc(N3CCOCC3)cc1)nc1ccc(-c3cn[nH]c3)cc12` has what recorded AUC(0-t)?
OUT: 2.53

* * *

- ASSAY TEXT: Pharmacokinetics in plasma and eye tissues of male SD rats after single administration of eye drop
- Assay type: in vivo
- EXPERIMENTAL CONTEXT: SD (Sprague-Dawley), rat, topical or ocular; male SD rats, single eye drop 5 mg/mL, 30 μL/eye, both eyes; Upper and lower eyelids
QUANTITY NAME: AUC(0-t) (µM·h)
Give the number; µM·h is assumed, so skip it.

IN: Given the compound `c1cn2c(n1)c(Nc1ccc(N3CCOCC3)cc1)nc1ccc(-c3cn[nH]c3)cc12` , what is its reported AUC(0-t)?
OUT: 65.5

* * *

- ASSAY TEXT: Pharmacokinetics in plasma and eye tissues of male SD rats after single administration of eye drop
- Assay type: in vivo
- EXPERIMENTAL CONTEXT: SD (Sprague-Dawley), rat, topical or ocular; male SD rats, single eye drop 5 mg/mL, 30 μL/eye, both eyes; Bulbar conjunctiva; extrapolated
QUANTITY NAME: AUC(0-inf) (µM·h)
Form entry: value (µM·h) — number only.

IN: Bench note: what AUC(0-inf) did `c1cn2c(n1)c(Nc1ccc(N3CCOCC3)cc1)nc1ccc(-c3cn[nH]c3)cc12` show?
OUT: 16.4

* * *

- TARGET: KDR (VEGFR-2) protein kinase (Homo sapiens (Human), UniProt P35968)
- Sequence (P35968 20-1356): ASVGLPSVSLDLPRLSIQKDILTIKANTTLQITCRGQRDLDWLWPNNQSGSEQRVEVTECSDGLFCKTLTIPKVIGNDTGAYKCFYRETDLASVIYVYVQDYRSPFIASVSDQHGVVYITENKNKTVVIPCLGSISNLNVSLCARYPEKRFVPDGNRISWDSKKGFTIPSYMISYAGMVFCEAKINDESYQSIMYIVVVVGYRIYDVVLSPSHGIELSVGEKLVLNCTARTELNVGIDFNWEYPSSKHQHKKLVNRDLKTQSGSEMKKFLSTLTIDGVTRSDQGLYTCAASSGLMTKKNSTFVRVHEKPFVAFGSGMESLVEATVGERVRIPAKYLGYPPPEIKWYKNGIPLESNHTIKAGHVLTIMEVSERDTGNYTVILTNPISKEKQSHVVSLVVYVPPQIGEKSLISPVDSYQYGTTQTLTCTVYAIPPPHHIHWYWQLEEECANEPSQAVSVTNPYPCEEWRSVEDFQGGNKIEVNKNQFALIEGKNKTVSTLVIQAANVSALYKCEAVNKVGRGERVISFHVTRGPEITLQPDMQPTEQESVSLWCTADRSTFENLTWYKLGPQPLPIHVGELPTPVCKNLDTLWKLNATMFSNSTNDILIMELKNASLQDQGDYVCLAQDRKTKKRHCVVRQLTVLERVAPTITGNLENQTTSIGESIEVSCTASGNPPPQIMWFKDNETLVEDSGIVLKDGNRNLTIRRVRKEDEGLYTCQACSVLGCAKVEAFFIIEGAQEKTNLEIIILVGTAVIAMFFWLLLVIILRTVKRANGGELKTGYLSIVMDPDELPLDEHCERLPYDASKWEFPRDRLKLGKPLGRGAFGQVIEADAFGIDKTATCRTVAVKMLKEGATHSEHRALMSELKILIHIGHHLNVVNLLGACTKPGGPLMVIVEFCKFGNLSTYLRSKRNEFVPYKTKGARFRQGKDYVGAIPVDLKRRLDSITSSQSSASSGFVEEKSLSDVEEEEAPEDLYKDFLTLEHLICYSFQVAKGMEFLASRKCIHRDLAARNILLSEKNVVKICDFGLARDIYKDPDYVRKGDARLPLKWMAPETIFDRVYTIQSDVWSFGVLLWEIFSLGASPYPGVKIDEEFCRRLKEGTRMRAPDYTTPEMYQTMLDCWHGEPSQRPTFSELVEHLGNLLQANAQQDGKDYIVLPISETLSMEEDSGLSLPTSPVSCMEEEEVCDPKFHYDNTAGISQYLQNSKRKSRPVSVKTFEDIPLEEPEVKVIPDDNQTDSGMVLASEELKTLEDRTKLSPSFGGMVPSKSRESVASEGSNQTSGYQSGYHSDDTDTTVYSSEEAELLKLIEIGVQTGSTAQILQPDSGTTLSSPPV
- ASSAY TEXT: In vitro evaluation of inhibitory activity against KDR (VEGFR-2) protein kinase (ADP-Glo kinase assay)
- Type: biochemical
QUANTITY NAME: IC50 (nM)
Field: numeric (nM). Do not append units.

IN: What value of IC50 has been reported for the following compound? `c1cn2c(n1)c(Nc1ccc(N3CCOCC3)cc1)nc1ccc(-c3cn[nH]c3)cc12`
OUT: 28

Numbers sourced from patent US20240132503A1.
